Kindly supply the reported IC50 values for the records listed here.
- Target Or System: KRAS G12D (Homo sapiens, UniProt P01116, G12D)
- Construct: aa1-188 KRAS WT, HRAS WT, NRAS WT, or KRAS containing the G12D
- Sequence (P01116 1-188 isoform P01116-2 G12D): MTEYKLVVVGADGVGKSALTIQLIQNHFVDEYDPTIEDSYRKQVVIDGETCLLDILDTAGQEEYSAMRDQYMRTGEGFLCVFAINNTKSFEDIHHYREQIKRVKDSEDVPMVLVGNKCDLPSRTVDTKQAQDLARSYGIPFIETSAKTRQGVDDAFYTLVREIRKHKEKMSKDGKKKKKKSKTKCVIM
- Procedure Details: HTRF nucleotide exchange assay, KRAS G12D
- Conditions: HTRF nucleotide exchange assay (NEA), class symbols

Measured IC50, CCc1c(F)ccc2cc(O)cc(-c3c(C)c4nc(OC[C@]5(C)CCCN5)nc(N5CCOCC(C)(O)C5)c4c4cn(C)nc34)c12 (stereo partly drawn) : ≤ 10 nM

Measured IC50, CCc1c(F)ccc2cc(O)cc(-c3cc4nc(OC[C@@]56CCCN5C[C@H](F)C6)nc(N5CCC(CO)C5)c4c4cn(C)nc34)c12 (stereo partly drawn) : ≤ 10 nM

Measured IC50, CCc1c(F)ccc2cc(O)cc(-c3c(F)c4nc(OC[C@@]56CCCN5C[C@H](F)C6)nc(N5CCC[C@@H](O)C5)c4c4cn(C)nc34)c12 : ≤ 10 nM

Measured IC50, CCc1c(F)ccc2cc(O)cc(-c3cc4nc(OC[C@@]56CCCN5C[C@H](F)C6)nc(N5CCCn6nc(C(=O)N(C)C)c(F)c6C5)c4c4cn(C)nc34)c12 : ≤ 10 nM

Measured IC50, CCc1c(F)ccc2cc(O)cc(-c3c(F)c4nc(OC[C@@H]5CCN5C)nc(N5CCOCC(C)(O)C5)c4c4cn(C)nc34)c12 (stereo partly drawn) : ≤ 10 nM

Measured IC50, CCc1c(F)ccc2cc(O)cc(-c3cc4nc(OC[C@@]56CCCN5C[C@H](F)C6)nc(N5CCOC6(COC6)C5)c4c4cn(C)nc34)c12 : 10 to 100 nM

---

Kindly supply the reported pIC50 values for the records listed here.
- Target Or System: KRAS G12D (Homo sapiens, UniProt P01116, G12D)
- Construct: aa1-188 KRAS WT, HRAS WT, NRAS WT, or KRAS containing the G12D
- Procedure Details: HTRF nucleotide exchange assay, KRAS G12D
- Conditions: HTRF nucleotide exchange assay (NEA), class symbols
pIC50: −log10 of the molar value.

Measured pIC50, CCc1c(F)ccc2cc(O)cc(-c3c(F)c4nc(OCC5(CF)COC5)nc(N5CCOCC(C)(O)C5)c4c4cn(C)nc34)c12 (stereo not drawn) [Example 163] : ≥ 8.00

Measured pIC50, CCc1c(F)ccc2cc(O)cc(-c3c(F)c4nc(OCC56COC(COC)(C5)C6)nc(N5CCCn6nc(C(=O)N(C)C)cc6C5)c4c4cn(C)nc34)c12 [Example 208] : ≥ 8.00

Measured pIC50, CCc1c(F)ccc2cc(O)cc(-c3c(F)c4nc(OC[C@@]56CCCN5C[C@H](F)C6)nc(N5C[C@H]6COC[C@@H]6C5)c4c4cn(C)nc34)c12 [Example 175] : 5.00 to 7.00

Measured pIC50, C#Cc1c(F)ccc2cc(O)cc(-c3cc4nc(OC[C@@]56CCCN5C[C@H](F)C6)nc(N5CCCCC(C)(O)C5)c4c4cn(C)nc34)c12 (stereo partly drawn) [Example 43] : ≥ 8.00

Measured pIC50, CCc1c(F)ccc2cc(O)cc(-c3c(F)c4nc(OCC5(CN6CC(O)C(F)(F)C6)CC5)nc(N5CCOCC(C)(O)C5)c4c4cn(C)nc34)c12 (stereo not drawn) [Example 237] : ≥ 8.00

Measured pIC50, C#Cc1c(F)ccc2cc(O)cc(-c3cc4nc(OC[C@@]56CCCN5C[C@H](F)C6)nc(N5CCCCCC5)c4c4cn(C)nc34)c12 [Example 12] : 7.00 to 8.00
